Tested on: Echinochloa oryzicola
Assay: Foliage treatment with emulsions, dry rice field conditions (Test Example 2, Table 9)
Assay type: in vivo
Settings: 150 g a.i./ha; emulsion of Formulation Example 3; division stage 1~2; 20 days after foliage treatment
Hi there, I'd appreciate the recorded Herbicidal effect (0~100), 20 days, Echinochloa oryzicola for every entry that follows.
Numbers only, in %.

- CCOC(=O)[C@@H](C)Oc1ccc(Oc2nc3ccc(Cl)cc3o2)cc1 [Phenoxaprop-P-ethyl, phenoxaprop-P-ethyl, reference compound]: 100
- COc1ccc2nc(NC(=O)[C@@H](C)Oc3ccc(Oc4nc5ccc(Cl)cc5o4)cc3)sc2c1: 70
- C[C@@H](Oc1ccc(Oc2nc3ccc(Cl)cc3o2)cc1)C(=O)Nc1nc2ccccc2s1: 100

Q: // Herbicidal effect (0~100), 20 days, Echinochloa oryzicola lookup, key: C[C@@H](Oc1ccc(Oc2nc3ccc(Cl)cc3o2)cc1)C(=O)Nc1nc2cc(Cl)ccc2o1
Ans: 100

====

System: ARTHIS (Arthraxon hispidus (Thunb.) Makino, creek grass)
Experiment: Weed control test, foliage treatment (Test Example 1, Table 7)
Format: in vivo
Details: Arthraxon hispidus, foliar, 0.2 kg/ha, read-out: Plant damage (herbicidal activity), visually evaluated, ARTHIS
Observed property: pest or weed control at 200 g/ha (%)
One number for each entry, in %.

• C[C@@H](Oc1ccc(C(F)=C(c2ccccc2)C(F)(F)F)cc1)C(=O)Nc1ccccc1F [Example 42] = 50
• C[C@@H](Oc1ccc(C(F)=C(c2ccccc2)C(F)(F)F)cc1)C(=O)Nc1nc2cc(Cl)ccc2o1 [Example 55] = 0
• COc1ccc2nc(NC(=O)[C@@H](C)Oc3ccc(Oc4nc5ccc(Cl)cc5o4)cc3)sc2c1 [Example 13] = 100

Alright, here's another compound for you.
Q: I am curious: what pest or weed control at 200 g/ha value has been reported for C[C@@H](Oc1ccc(Oc2nc3ccc(Cl)cc3o2)cc1)C(=O)Nc1nc2ccccc2s1 [Example 5] ?
Ans: 100

====

System: SETVIR (Setaria viridis (L.) Beauv, green foxtail)
Assay: Weed control test, foliage treatment (Test Example 1, Table 7)
Assay type: in vivo
Conditions: Setaria viridis, foliar, 0.2 kg/ha, read-out: Plant damage (herbicidal activity), visually evaluated, SETVIR
Observed property: pest or weed control at 200 g/ha (%)
One number for each entry, in %.

Worked cases, answers included:
• Cc1ccc(C=C(F)Oc2ccc(O[C@H](C)C(=O)Nc3ccccc3F)cc2)cc1 [Example 41] = 70
• C[C@@H](Oc1ccc(OC(F)=Cc2ccccc2)cc1)C(=O)N(C)c1ccccc1F [Example 37] = 20
• C[C@@H](Oc1ccc(Oc2nc3ccc(Cl)cc3o2)cc1)C(=O)N(C)c1nc2ccccc2s1 [Example 6] = 50

For the 7 compounds below, give their pest or weed control at 200 g/ha values.
1. C[C@@H](Oc1ccc(Oc2nc3ccc(Cl)cc3o2)cc1)C(=O)Nc1nc2cc(Cl)ccc2o1 [Example 1]
2. Cc1cc(NC(=O)[C@@H](C)Oc2ccc(Oc3ccc(C#N)cc3F)cc2)n(C)n1 [Example 29]
3. C[C@@H](Oc1ccc(Oc2ccc(C#N)cc2F)cc1)C(=O)Nc1nc2ccc(F)cc2s1 [Example 23]
4. C[C@@H](Oc1ccc(Oc2ccc(C#N)cc2F)cc1)C(=O)Nc1nc2ccc(Cl)cc2s1 [Example 21]
5. C[C@@H](Oc1ccc(C(F)=C(c2ccccc2)C(F)(F)F)cc1)C(=O)Nc1ccccc1F [Example 42]
6. C[C@@H](Oc1ccc(Oc2ccc(C#N)cc2F)cc1)C(=O)Nc1cnccn1 [Example 35]
7. COc1ccc2nc(N(C)C(=O)[C@@H](C)Oc3ccc(Oc4nc5ccc(Cl)cc5o4)cc3)sc2c1 [Example 14]

Ans:
1. 100
2. 20
3. 20
4. 90
5. 70
6. 50
7. 50

For each entry beneath this line, provide reported pest or weed control at 200 g/ha.
1. COc1ccc2nc(NC(=O)[C@@H](C)Oc3ccc(Oc4ccc(C#N)cc4F)cc3)sc2c1 [Example 27]
2. C[C@@H](Oc1ccc(Oc2ccc(C#N)cc2F)cc1)C(=O)Nc1nccs1 [Example 31]
3. Cc1ccc2nc(N(C)C(=O)[C@@H](C)Oc3ccc(Oc4ccc(C#N)cc4F)cc3)sc2c1 [Example 26]
4. C[C@@H](Oc1ccc(OC(F)=Cc2ccc(Cl)cc2)cc1)C(=O)Nc1nc2cc(Cl)ccc2o1 [Example 56]

Ans:
1: 20; 2: 70; 3: 0; 4: 20

Items follow; give pest or weed control at 200 g/ha for each.
1. C[C@@H](Oc1ccc(C(F)=C(c2ccccc2)C(F)(F)F)cc1)C(=O)Nc1nc2cc(Cl)ccc2o1 [Example 55]
2. C[C@@H](Oc1ccc(OC(F)=Cc2ccc(F)cc2)cc1)C(=O)Nc1nc2cc(Cl)ccc2o1 [Example 52]

Ans:
0
10

====

I'd be grateful if you could share measured pest or weed control at 100 g/ha for these entries.
System: ARTHIS (Arthraxon hispidus (Thunb.) Makino, creek grass)
Test: Weed control test, foliage treatment (Test Example 1, Table 7)
Assay type: in vivo
Details: Arthraxon hispidus, foliar, 0.1 kg/ha, read-out: Plant damage (herbicidal activity), visually evaluated, ARTHIS
Give bare numbers, in %.

# count of solved cases: 7
* C[C@@H](Oc1ccc(OC(F)=Cc2ccc(F)cc2)cc1)C(=O)Nc1nc2cc(Cl)ccc2o1 | 0
* C[C@@H](Oc1ccc(Oc2nc3ccc(Cl)cc3o2)cc1)C(=O)Nc1nc2ccccc2s1 | 100
* C[C@@H](Oc1ccc(C(F)=C(c2ccccc2)C(F)(F)F)cc1)C(=O)Nc1nc2cc(Cl)ccc2o1 | 0
* Cc1cc(NC(=O)[C@@H](C)Oc2ccc(Oc3ccc(C#N)cc3F)cc2)n(C)n1 | 0
* C[C@@H](Oc1ccc(Oc2ccc(C#N)cc2F)cc1)C(=O)Nc1nc2ccccc2s1 | 10
* COc1ccc2nc(NC(=O)[C@@H](C)Oc3ccc(Oc4ccc(C#N)cc4F)cc3)sc2c1 | 0
* C[C@@H](Oc1ccc(Oc2ccc(C#N)cc2F)cc1)C(=O)Nc1nccs1 | 70

Proceed to the following item.
Q: Which pest or weed control at 100 g/ha reading was recorded for the compound C[C@@H](Oc1ccc(Oc2nc3ccc(Cl)cc3o2)cc1)C(=O)N(C)c1nc2ccccc2s1 ?
Ans: 20

====

Please provide measured pest or weed control at 25 g/ha for the entries that follow.
System: ECHOG (Echinoch crus-galli Beauv. var. caudata Kitagawa, barnyard grass)
Test: Weed control test, foliage treatment (Test Example 1, Table 7)
Type: in vivo
Conditions: Echinochloa crus-galli, foliar, 3-leaf stage, 0.025 kg/ha, read-out: Plant damage (herbicidal activity), visually evaluated, ECHOG
Text: Seeds of rice, wheat, soy bean, barley, corn, common sorgum, barnyard grass, large crabgrass, creek grass, green foxtail and fall panicum were placed in sandy loam in 600 cm^2 pots and covered with soil. […] The plant damage at 10 days and 20 days after the foliage treatment was visually evaluated from the level of 1 to 100% by comparison with the untreated control: […]
Answers are plain numbers, in %.

Look over these answered cases.
- C[C@@H](Oc1ccc(Oc2ccc(C#N)cc2F)cc1)C(=O)Nc1nc2ccc(F)cc2s1 [Example 23]: 20
- C[C@@H](Oc1ccc(OC(F)=Cc2ccc(Cl)cc2)cc1)C(=O)Nc1nc2cc(Cl)ccc2o1 [Example 56]: 20
- C[C@@H](Oc1ccc(Oc2ccc(C#N)cc2F)cc1)C(=O)Nc1cnccn1 [Example 35]: 0

Note: attention shifts to another entry.
Q: Param item = C[C@@H](Oc1ccc(C(F)=C(c2ccccc2)C(F)(F)F)cc1)C(=O)Nc1ccccc1F [Example 42] ; retrieve measured pest or weed control at 25 g/ha.
Ans: 0

====

System: rice (Nampyung rice)
Assay: Foliage treatment with emulsions, dry rice field conditions, harmful effect on rice (Test Example 2, Table 9)
Assay type: in vivo
Settings: 6~6.5-leaf stage, 150 g a.i./ha, emulsion, 30 days after foliage treatment
Description: Seeds of rice (Nampyung rice) and barnyard grasses (Echinochloa oryzicola and Echinochloa crus-galli var. crus-galli) were placed in sandy loam of pots, covered with soil, and grown in the dry rice field conditions.
Observed property: Harmful effect, 30 days

Solved cases below.
* CCOC(=O)[C@@H](C)Oc1ccc(Oc2nc3ccc(Cl)cc3o2)cc1 [Phenoxaprop-P-ethyl, phenoxaprop-P-ethyl, reference compound] | 38%
* COc1ccc2nc(NC(=O)[C@@H](C)Oc3ccc(Oc4nc5ccc(Cl)cc5o4)cc3)sc2c1 | 0%
* C[C@@H](Oc1ccc(Oc2nc3ccc(Cl)cc3o2)cc1)C(=O)Nc1nc2cc(Cl)ccc2o1 | 0%

Q: Could you tell me which Harmful effect, 30 days is on file for C[C@@H](Oc1ccc(Oc2nc3ccc(Cl)cc3o2)cc1)C(=O)Nc1nc2ccccc2s1 ?
Ans: 0%

====

Test system: ECHOG (Echinoch crus-galli Beauv. var. caudata Kitagawa, barnyard grass)
Experiment: Weed control test, foliage treatment (Test Example 1, Table 7)
Assay type: in vivo
Conditions: Echinochloa crus-galli, foliar, 3-leaf stage, 0.2 kg/ha, read-out: Plant damage (herbicidal activity), visually evaluated, ECHOG
Field: pest or weed control at 200 g/ha. Provide a value for each of the compounds that follow.
One number for each entry, in %.

In the examples that follow, each entry is paired with its recorded pest or weed control at 200 g/ha.
• C[C@@H](Oc1ccc(OC(F)=Cc2ccc(F)cc2)cc1)C(=O)Nc1nc2cc(Cl)ccc2o1 = 20
• C[C@@H](Oc1ccc(Oc2ccc(C#N)cc2F)cc1)C(=O)Nc1nc2ccc(Cl)cc2s1 = 90
• C[C@@H](Oc1ccc(Oc2nc3ccc(Cl)cc3o2)cc1)C(=O)Nc1nc2cc(Cl)ccc2o1 = 100
• C[C@@H](Oc1ccc(C(F)=C(c2ccc(F)cc2)C(F)(F)F)cc1)C(=O)Nc1ccccc1F = 90

Could you report pest or weed control at 200 g/ha for every entry in the following list?
1. C[C@@H](Oc1ccc(OC(F)=Cc2ccc(Cl)cc2)cc1)C(=O)Nc1nc2cc(Cl)ccc2o1
2. COc1ccc2nc(NC(=O)[C@@H](C)Oc3ccc(Oc4ccc(C#N)cc4F)cc3)sc2c1
3. Cc1ccc2nc(N(C)C(=O)[C@@H](C)Oc3ccc(Oc4ccc(C#N)cc4F)cc3)sc2c1
4. C[C@@H](Oc1ccc(C(F)=C(c2ccccc2)C(F)(F)F)cc1)C(=O)Nc1nc2cc(Cl)ccc2o1
5. COc1ccc2nc(NC(=O)[C@@H](C)Oc3ccc(Oc4nc5ccc(Cl)cc5o4)cc3)sc2c1

Ans:
90
90
0
0
100

State recorded pest or weed control at 200 g/ha for all listed compounds.
1. C[C@@H](Oc1ccc(Oc2nc3ccc(Cl)cc3o2)cc1)C(=O)N(C)c1nc2ccccc2s1
2. C[C@@H](Oc1ccc(OC(F)=Cc2ccccc2)cc1)C(=O)N(C)c1ccccc1F
3. C[C@@H](Oc1ccc(Oc2ccc(C#N)cc2F)cc1)C(=O)Nc1nccs1
4. C[C@@H](Oc1ccc(C(F)=C(c2ccccc2)C(F)(F)F)cc1)C(=O)Nc1ccccc1F
5. C[C@@H](Oc1ccc(Oc2nc3ccc(Cl)cc3o2)cc1)C(=O)Nc1nc2ccccc2s1

Ans:
1: 70; 2: 90; 3: 90; 4: 20; 5: 100

Look at each compound and report its pest or weed control at 200 g/ha.
1. C[C@@H](Oc1ccc(Oc2ccc(C#N)cc2F)cc1)C(=O)Nc1nc2ccc(F)cc2s1
2. Cc1cc(NC(=O)[C@@H](C)Oc2ccc(Oc3ccc(C#N)cc3F)cc2)n(C)n1

Ans:
1: 50; 2: 90
